Experimental system: Cytochrome P450 2C9 (Homo sapiens) (UniProt P11712)
Sequence (P11712 whole entry, looked up): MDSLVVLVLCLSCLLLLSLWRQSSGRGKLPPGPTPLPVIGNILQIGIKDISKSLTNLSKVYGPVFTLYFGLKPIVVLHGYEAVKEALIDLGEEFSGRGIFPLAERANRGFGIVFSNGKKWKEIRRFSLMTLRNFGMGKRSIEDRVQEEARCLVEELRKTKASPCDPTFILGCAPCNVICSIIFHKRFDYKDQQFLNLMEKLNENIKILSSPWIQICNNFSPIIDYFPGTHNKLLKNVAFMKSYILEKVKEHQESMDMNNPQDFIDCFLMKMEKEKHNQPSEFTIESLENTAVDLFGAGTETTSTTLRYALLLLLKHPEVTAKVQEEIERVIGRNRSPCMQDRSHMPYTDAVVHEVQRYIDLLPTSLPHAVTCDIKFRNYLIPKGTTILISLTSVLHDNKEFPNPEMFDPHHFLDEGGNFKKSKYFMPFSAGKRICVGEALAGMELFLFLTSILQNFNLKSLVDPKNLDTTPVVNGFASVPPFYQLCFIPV
Method: blockers of cytochrome P450 2C9 activity – biochemical, luminescence, ADME assay, primary screen (AID 777)
Condition info: CYP2C9 Supersomes, luciferin-H conversion, at 5 µM
Out of some 96,000 compounds screened, about 19,000 (20%) were called active.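 Rule for the calls: active = blocking of liver enzyme CYP2C9 beyond about 50% at 5 µM (limit read from the data); inactive = the rest.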 A selection follows.
Bench note: report the call from True (active), False (inactive)

Recorded test call requested for CCOc1ccc(C2C(C(=O)O)c3ccccc3C(=O)N2CCN2CCOCC2)cc1 (stereo not given)
False

Recorded test call requested for "COc1ccc(-n2ncc3c(N4CCc5ccccc54)ncnc32)cc1"
False

Recorded test call requested for "O=C(CNS(=O)(=O)c1cccc(C(F)(F)F)c1)Nc1ccccc1F"
False

Recorded test call requested for "Cn1c(=O)[nH]c(=O)c2c1nc(N(CCO)Cc1ccccc1)n2Cc1ccccc1Cl"
False

Recorded test call requested for CCCOc1ccc(C2c3c(oc4cc(C)c(C)cc4c3=O)C(=O)N2CCCN2CCOCC2)cc1 (stereo not given)
True

* * *

Experimental system: Cytochrome P450 2C9 (Homo sapiens) (UniProt P11712)
Method: blockers of cytochrome P450 2C9 activity – biochemical, luminescence, ADME assay, primary screen (AID 777)
Condition info: CYP2C9 Supersomes, luciferin-H conversion, at 5 µM, active compounds read high
Out of some 96,000 compounds screened, about 19,000 (20%) were called active. These entries were drawn from the full list.
Please provide measured inhibition for the entries that follow.
Reply with just the number (in %).

Any idea what inhibition was measured for "Cc1cc(C(=O)N2CCN(c3ccccn3)CC2)c(C)o1" ?
12.4

Any idea what inhibition was measured for "COc1ccc2c(c1)C(C)=CC(C)(C)N2C(=O)CNCc1ccc2c(c1)OCO2" ?
77.9

Any idea what inhibition was measured for "Cc1ccc(S(=O)(=O)N(C)CC(=O)NC2CCCC2)cc1" ?
-30.3

Any idea what inhibition was measured for "CCn1cc(C(=O)N2CCN(Cc3ccc4c(c3)OCO4)CC2)c2cc(OC)c(OC)cc2c1=O" ?
-44.4

Any idea what inhibition was measured for Cc1ccc(-c2nc(CS(=O)CC(=O)NC3CCCC3)c(C)o2)cc1 (stereo not given) ?
53

Any idea what inhibition was measured for COc1ccc(-c2nc(CS(=O)CC(=O)N3CCc4ccccc4C3)c(C)o2)cc1 (stereo not given) ?
40.4

Any idea what inhibition was measured for "Cc1nc(NC(=O)c2cccc(Cl)c2)sc1-c1csc(Nc2cccc(Cl)c2)n1" ?
-17.4

Any idea what inhibition was measured for Cc1ccc(-c2nc(CS(=O)CC(=O)N3CCN(c4ncccn4)CC3)c(C)o2)cc1 (stereo not given) ?
79

Any idea what inhibition was measured for "C=C(C)Cn1c(N2CCN(CC)CC2)nc2c1c(=O)[nH]c(=O)n2C" ?
-14.5

Any idea what inhibition was measured for "CC1=CC(C)(C)N(C(=O)CSc2nnc(-c3ccccc3)o2)c2ccc(C)cc21" ?
11.9

* * *

Please provide measured inhibition for the entries that follow.
Experimental system: Cytochrome P450 2C9 (Homo sapiens) (UniProt P11712)
Method: blockers of cytochrome P450 2C9 activity – biochemical, luminescence, ADME assay, primary screen (AID 777)
Condition info: CYP2C9 Supersomes, luciferin-H conversion, at 5 µM, active compounds read high
The campaign covered roughly 96,000 compounds. About 19,000 (20%) were called active. Not all results are given here.
Reply with just the number (in %).

Give the reported inhibition for CCC(C)(NC(=O)c1ccccn1)C(=O)NC1CCCCC1 (stereo unspecified) (system: Cytochrome P450 2C9 (Homo sapiens) (UniProt P11712)).
12.3

Give the reported inhibition for CC1=NC2(CCCc3c2no[n+]3[O-])N(O)C1(C)C (stereo unspecified) (system: Cytochrome P450 2C9 (Homo sapiens) (UniProt P11712)).
11.5

Give the reported inhibition for "Cc1noc(C)c1C(=O)N(CC(=O)NC1CCCC1)Cc1ccccc1F" (system: Cytochrome P450 2C9 (Homo sapiens) (UniProt P11712)).
26.2

Give the reported inhibition for "CNC(=O)n1ccc(C(=O)N2CCCCC2)n1" (system: Cytochrome P450 2C9 (Homo sapiens) (UniProt P11712)).
-19.7

Give the reported inhibition for CCC(C)NC(=O)c1c(N)n(/N=C/c2cccs2)c2nc3ccccc3nc12 (stereo unspecified) (system: Cytochrome P450 2C9 (Homo sapiens) (UniProt P11712)).
17.2

Give the reported inhibition for "C[C@@H](Nc1nc(-c2ccccc2)nc2c1oc1ccccc12)C(=O)O" (system: Cytochrome P450 2C9 (Homo sapiens) (UniProt P11712)).
11.2

Give the reported inhibition for "CN(CC(=O)NC1CCCCC1)S(=O)(=O)c1cccc2cccnc12" (system: Cytochrome P450 2C9 (Homo sapiens) (UniProt P11712)).
-46

Give the reported inhibition for "CCCCc1nc(NCCN)c(C#N)c2c1CSC(C)(C)C2" (system: Cytochrome P450 2C9 (Homo sapiens) (UniProt P11712)).
53.6

Give the reported inhibition for "Cc1ccc(-c2n[nH]c(=S)n2/N=C/c2cc3c(cc2[N+](=O)[O-])OCO3)cc1" (system: Cytochrome P450 2C9 (Homo sapiens) (UniProt P11712)).
18

Give the reported inhibition for "CCOc1ccccc1N(CC(=O)NC1CCCCC1)C(=O)CCCC(=O)Nc1ccccn1" (system: Cytochrome P450 2C9 (Homo sapiens) (UniProt P11712)).
79.8

Give the reported inhibition for OC(COc1ccccc1)Cn1cc(Br)cn1 (stereo unspecified) (system: Cytochrome P450 2C9 (Homo sapiens) (UniProt P11712)).
18.3

* * *

Experimental system: Cytochrome P450 2C9 (Homo sapiens) (UniProt P11712)
Method: blockers of cytochrome P450 2C9 activity – biochemical, luminescence, ADME assay, primary screen (AID 777)
Condition info: CYP2C9 Supersomes, luciferin-H conversion, at 5 µM, active compounds read high
About 19,000 (20%) of roughly 96,000 compounds were called active. The list is a sample of the results.
Output true for inhibition not less than 10%; output false otherwise.

Hi team, for "Cc1cc2ncn(CCCCOc3ccccc3)c2cc1C" , is the recorded inhibition at or above 10%?
true

Hi team, for "Cc1cc(NC(=O)CSc2nnc(-c3ccc(Cl)s3)o2)no1" , is the recorded inhibition at or above 10%?
true

Hi team, for "O=S(=O)(c1ccc(F)cc1)n1ccc(-c2cnc(-c3ccccc3)s2)n1" , is the recorded inhibition at or above 10%?
true

Hi team, for "Cc1ccc(/C=N/NC(=O)c2sccc2OCc2ccc(F)cc2)cc1" , is the recorded inhibition at or above 10%?
true

Hi team, for "Cc1cc(C)c2c(c1)cc(C)c1nnc(SCC(=O)Nc3cc(C)on3)n12" , is the recorded inhibition at or above 10%?
true

Hi team, for "CC(C)Oc1ccc(Oc2ccc(C(F)(F)F)cn2)cc1" , is the recorded inhibition at or above 10%?
true

Hi team, for "COCCCNC(=O)Cn1cc(C(=O)C2CC2)c2ccccc21" , is the recorded inhibition at or above 10%?
true

Hi team, for "COc1ccc(-c2nnc(SCC(=O)c3cccs3)o2)c(OC)c1" , is the recorded inhibition at or above 10%?
true

Hi team, for "NC(=O)CSc1oc(-c2cccs2)nc1S(=O)(=O)c1ccccc1" , is the recorded inhibition at or above 10%?
true

Hi team, for "Cc1ccc(-c2nnc(-n3nnc4ccccc43)c3ccccc23)cc1" , is the recorded inhibition at or above 10%?
false

Hi team, for "COc1ccc(OC)c(C(=O)CSc2nnc(-c3cccs3)o2)c1" , is the recorded inhibition at or above 10%?
true

Hi team, for "Cc1ccc(-c2nn(-c3ccccc3)cc2/C=N/NC(=O)c2ccc3c(c2)OCO3)cc1" , is the recorded inhibition at or above 10%?
true

Hi team, for "Nc1nc(Br)c2ccccc2c1-c1ccc(F)cc1" , is the recorded inhibition at or above 10%?
false

Hi team, for "Cc1oc(CC(C)C)c(CN2CCCC2)c1C(=O)O" , is the recorded inhibition at or above 10%?
false

Hi team, for "CC1(C)CN=C(N2CCN(c3ncnc4sc5c(c34)CCCC5)CC2)S1" , is the recorded inhibition at or above 10%?
true

Hi team, for COC(=O)C1=C(C)N=C2SC(C)C(=O)N2C1/C=C/c1ccccc1 (stereo not drawn) , is the recorded inhibition at or above 10%?
true

Hi team, for "Cc1nnc(SCC(=O)N/N=C/c2cn(-c3ccccc3)nc2-c2ccc(F)cc2)n1-c1ccccc1" , is the recorded inhibition at or above 10%?
true

Hi team, for "CCCOc1ccccc1-c1nc(SCCC(=O)O)n[nH]1" , is the recorded inhibition at or above 10%?
false

Hi team, for O=C(CN1C2CCC1CC(NC(=O)C1CC1)C2)NCc1ccccc1 (stereo not drawn) , is the recorded inhibition at or above 10%?
false

Hi team, for "CCOC(=O)c1c(C)c(C(=O)NCCc2ccc(S(N)(=O)=O)cc2)c(C)n1CC" , is the recorded inhibition at or above 10%?
true

Hi team, for "Cc1cc(C(F)F)n2nc(C(=O)Nc3ccc(S(=O)(=O)NC45CC6CC(CC(C6)C4)C5)cc3)nc2n1" , is the recorded inhibition at or above 10%?
true

Hi team, for "COc1ccccc1-c1nnc(SCC(=O)Nc2cc(C)on2)o1" , is the recorded inhibition at or above 10%?
false

Hi team, for "Cc1nc2ncnn2c(C)c1CCC(=O)N1CCN(C(=O)c2ccco2)CC1" , is the recorded inhibition at or above 10%?
false
